PROTOCOL_DESCRIPTION: Half life in BALB/c mouse at 100 mg/kg, po administered as single dose by LC-MS/MS analysis
Type: ADME, organism-based
CONDITION_CONTEXT: in vivo
MEASURED_PROPERTY: half-life (h)
Numbers only, in h.

Per the records, this compound ( CC(C)(C)NC(=O)N(CCCCCCN1C[C@H](O)[C@@H](O)[C@H](O)[C@H]1CO)C1CCCCC1 ) has half-life equal to 5.46

---

PROTOCOL_DESCRIPTION: Metabolic stability in pooled mouse liver microsomes assessed as parent compound remaining at 200 uM measured after 60 mins by LC-MS/MS analysis
Format: ADME, microsome
CONDITION_CONTEXT: liver microsomes, read-out: Stability
MEASURED_PROPERTY: remaining at 1 h, 200 µM
For clarity, give the value followed by its unit.

Completed entries (count: 2):
- SMILES_REPR: "CCCC(=O)OC[C@@H]1[C@@H](OC(=O)CCC)[C@H](OC(=O)CCC)[C@@H](OC(=O)CCC)CN1CCCCCCN(C(=O)NC(C)(C)C)C1CCCCC1"
  remaining at 1 h, 200 µM: "12%"
- SMILES_REPR: "CC(=O)OC[C@@H]1[C@@H](OC(C)=O)[C@H](OC(C)=O)[C@@H](OC(C)=O)CN1CCCCCCN(C(=O)NC(C)(C)C)C1CCCCC1"
  remaining at 1 h, 200 µM: "0%"

Per the records, this molecule ( CC(C)C(=O)OC[C@@H]1[C@@H](OC(=O)C(C)C)[C@H](OC(=O)C(C)C)[C@@H](OC(=O)C(C)C)CN1CCCCCCN(C(=O)NC(C)(C)C)C1CCCCC1 ) has remaining at 1 h, 200 µM equal to 7%

---

PROTOCOL_DESCRIPTION: Metabolic stability in pooled human liver microsomes assessed as parent compound remaining at 200 uM measured after 60 mins in presence of NADPH and UDPGA by LC-MS/MS analysis
Type: ADME, microsome
CONDITION_CONTEXT: read-out: Stability
What remaining at 1 h, 200 µM was measured for each of the following?
For clarity, give the value followed by its unit.

- SMILES_REPR: "CCCC(=O)OC[C@@H]1[C@@H](OC(=O)CCC)[C@H](OC(=O)CCC)[C@@H](OC(=O)CCC)CN1CCCCCCN(C(=O)NC(C)(C)C)C1CCCCC1"
  MEASURED_PROPERTY: "remaining at 1 h, 200 µM"
  MEASUREMENT: "4%"
- SMILES_REPR: "CC(C)C(=O)OC[C@@H]1[C@@H](OC(=O)C(C)C)[C@H](OC(=O)C(C)C)[C@@H](OC(=O)C(C)C)CN1CCCCCCN(C(=O)NC(C)(C)C)C1CCCCC1"
  MEASURED_PROPERTY: "remaining at 1 h, 200 µM"
  MEASUREMENT: "2%"
- SMILES_REPR: "CC(=O)OC[C@@H]1[C@@H](OC(C)=O)[C@H](OC(C)=O)[C@@H](OC(C)=O)CN1CCCCCCN(C(=O)NC(C)(C)C)C1CCCCC1"
  MEASURED_PROPERTY: "remaining at 1 h, 200 µM"
  MEASUREMENT: "0%"

Would you kindly look at the next entry?
Per the records, this molecule ( CC(C)(C)NC(=O)N(CCCCCCN1C[C@H](O)[C@@H](O)[C@H](O)[C@H]1CO)C1CCCCC1 ) has remaining at 1 h, 200 µM equal to 68%

Where do these numbers come from? They come from ChEMBL document CHEMBL4041548.
